experiment: Oral pharmacokinetics (oral gavage), plasma free EPA or free DHA; assay type: in vivo, Sprague-Dawley rats; conditions: both sexes, Sprague-Dawley, plasma; oral gavage 40 mg/kg, rat, 2 h (120 min); molar dose equivalent, baseline adjusted; read-out: Plasma level of free EPA
property: concentration at 2 h (ng/mL)

1. CC/C=C\C/C=C\C/C=C\C/C=C\C/C=C\CCCC(=O)O [EPA-FFA, eicosapentaenoic acid] = 800

----------
test: Oral pharmacokinetics (oral gavage), plasma free EPA or free DHA; assay type: in vivo, Sprague-Dawley rats; conditions: both sexes, Sprague-Dawley, plasma; oral gavage 40 mg/kg, rat, 12 h; molar dose equivalent, baseline adjusted; read-out: Plasma level of free EPA
property: concentration at 12 h

1) CC/C=C\C/C=C\C/C=C\C/C=C\C/C=C\CCCC(=O)O [EPA-FFA, eicosapentaenoic acid] = 300 ng/mL

----------
experiment: Oral pharmacokinetics (oral gavage), plasma free EPA or free DHA; assay type: in vivo, Sprague-Dawley rats; conditions: both sexes, Sprague-Dawley, plasma; oral gavage 40 mg/kg, rat, 0 h (pre-dose); molar dose equivalent, baseline adjusted; read-out: Plasma level of free EPA
property: concentration at 0 h

1. CC/C=C\C/C=C\C/C=C\C/C=C\C/C=C\CCCC(=O)O = 0 ng/mL

----------
test: Oral pharmacokinetics (oral gavage), plasma free EPA or free DHA; format: in vivo, Sprague-Dawley rats; settings: both sexes, Sprague-Dawley, plasma; oral gavage 40 mg/kg, rat, 0.5 h (30 min); molar dose equivalent, baseline adjusted; read-out: Plasma level of free EPA
property: concentration at 0.5 h (ng/mL)

1) CC/C=C\C/C=C\C/C=C\C/C=C\C/C=C\CCCC(=O)O [EPA-FFA, eicosapentaenoic acid] = 1300

----------
assay: Stability analysis by 1H NMR of samples exposed to air and light; conditions: ambient temperature, Day 30
Peptide text beside a SMILES is read from it.
property: Stability by NMR (amount of sample remaining relative to original sample)

1. CCC=CCC=CCC=CCC=CCC=CCCCC(=O)O.CCC=CCC=CCC=CCC=CCC=CCCCC(=O)O.N=C(N)NCCCC(N)C(=O)NC(CCCNC(=N)N)C(=O)O (stereo not drawn) [Arginyl-arginine Bis-EPA] (H-Arg-Arg-OH; configuration not given here) = 1 (1 = >95%)
2. CC/C=C\C/C=C\C/C=C\C/C=C\C/C=C\CCCC(=O)OCC = 4 (4 = <50%)
3. CC/C=C\C/C=C\C/C=C\C/C=C\C/C=C\CCCC(=O)O.NCCCC[C@H](NC(=O)[C@@H](N)CCCCN)C(=O)O.O=C(O)c1cccnc1 = 1 (1 = >95%)
4. CCC=CCC=CCC=CCC=CCC=CCC=CCCC(=O)O.CCC=CCC=CCC=CCC=CCC=CCC=CCCC(=O)O.N=C(N)NCCCC(N)C(=O)NC(CCCNC(=N)N)C(=O)O = 1 (1 = >95%)
5. CC/C=C\C/C=C\C/C=C\C/C=C\C/C=C\C/C=C\CCC(=O)O.NCCCC[C@H](NC(=O)[C@@H](N)CCCCN)C(=O)O = 1 (1 = >95%)

----------
experiment: Oral pharmacokinetics (oral gavage), plasma free EPA or free DHA; type: in vivo, Sprague-Dawley rats; settings: both sexes, Sprague-Dawley, plasma; oral gavage 40 mg/kg, rat, 18 h; molar dose equivalent, baseline adjusted; read-out: Plasma level of free EPA
property: concentration at 18 h (µg/mL)

1. CC/C=C\C/C=C\C/C=C\C/C=C\C/C=C\CCCC(=O)O [EPA-FFA, eicosapentaenoic acid] = 0

----------
assay: Stability analysis by 1H NMR of samples exposed to air and light; settings: ambient temperature, Day 3
Peptide text beside a SMILES is read from it.
property: Stability by NMR (amount of sample remaining relative to original sample)

1) CCC=CCC=CCC=CCC=CCC=CCC=CCCC(=O)O.CCC=CCC=CCC=CCC=CCC=CCC=CCCC(=O)O.N=C(N)NCCCC(N)C(=O)NC(CCCCN)C(=O)O [Arginyl-lysine Bis-DHA] = 1 (1 = >95%)
2) CCC=CCC=CCC=CCC=CCC=CCCCC(=O)O.CCC=CCC=CCC=CCC=CCC=CCCCC(=O)O.N=C(N)NCCCC(N)C(=O)NC(CCCNC(=N)N)C(=O)O (stereo not drawn) [Arginyl-arginine Bis-EPA] (H-Arg-Arg-OH; configuration not given here) = 1 (1 = >95%)
3) CCC=CCC=CCC=CCC=CCC=CCCCC(=O)O.CCC=CCC=CCC=CCC=CCC=CCCCC(=O)O.N=C(N)NCCCC(N)C(=O)NC(CCCCN)C(=O)O [Arginyl-lysine Bis-EPA] = 1 (1 = >95%)

----------
experiment: Oral pharmacokinetics (oral gavage), plasma free EPA or free DHA; assay type: in vivo, Sprague-Dawley rats; conditions: both sexes, Sprague-Dawley, plasma; oral gavage 40 mg/kg, rat, 0.25 h (15 min); molar dose equivalent, baseline adjusted; read-out: Plasma level of free EPA
property: concentration at 0.25 h (ng/mL)

1) CC/C=C\C/C=C\C/C=C\C/C=C\C/C=C\CCCC(=O)O = 0

----------
assay: Stability analysis by 1H NMR of samples exposed to air and light; conditions: ambient temperature, Day 60
property: Stability by NMR (amount of sample remaining relative to original sample)

1. CC/C=C\C/C=C\C/C=C\C/C=C\C/C=C\CCCC(=O)O.CC/C=C\C/C=C\C/C=C\C/C=C\C/C=C\CCCC(=O)O.NCCCC[C@H](NC(=O)[C@@H](N)CCCCN)C(=O)O [Compound 2, (L,L) Lysyl-lysine bis-EPA] = 1 (1 = >95%)
2. CCC=CCC=CCC=CCC=CCC=CCCCC(=O)O.CCC=CCC=CCC=CCC=CCC=CCCCC(=O)O.N=C(N)NCCCC(N)C(=O)NC(CCCCN)C(=O)O [Arginyl-lysine Bis-EPA] = 1 (1 = >95%)
3. CC/C=C\C/C=C\C/C=C\C/C=C\C/C=C\CCCC(=O)OCC [EPA ethyl ester] = 4 (4 = <50%)
4. CC/C=C\C/C=C\C/C=C\C/C=C\C/C=C\C/C=C\CCC(=O)O.NCCCC[C@H](NC(=O)[C@@H](N)CCCCN)C(=O)O [Compound 3, (L,L) Lysyl lysine DHA (mono)] = 1 (1 = >95%)
5. CCC=CCC=CCC=CCC=CCC=CCC=CCCC(=O)O.CCC=CCC=CCC=CCC=CCC=CCC=CCCC(=O)O.N=C(N)NCCCC(N)C(=O)NC(CCCCN)C(=O)O [Arginyl-lysine Bis-DHA] = 1 (1 = >95%)
6. CC/C=C\C/C=C\C/C=C\C/C=C\C/C=C\CCCC(=O)O.NCCCC[C@H](NC(=O)[C@@H](N)CCCCN)C(=O)O [Compound 1, (L,L) Lysyl-lysine EPA salt (mono)] = 1 (1 = >95%)

----------
experiment: Oral pharmacokinetics (oral gavage), plasma free EPA or free DHA; format: in vivo, Sprague-Dawley rats; conditions: both sexes, Sprague-Dawley, plasma; oral gavage 40 mg/kg, rat, 8 h; molar dose equivalent, baseline adjusted; read-out: Plasma level of free EPA
property: concentration at 8 h (ng/mL)

1. CC/C=C\C/C=C\C/C=C\C/C=C\C/C=C\CCCC(=O)O = 900

----------
# Stability by NMR (amount of sample remaining relative to original sample) annotations
test: Stability analysis by 1H NMR of samples exposed to air and light; details: ambient temperature, Day 14
property: Stability by NMR (amount of sample remaining relative to original sample)

1. CC/C=C\C/C=C\C/C=C\C/C=C\C/C=C\CCCC(=O)OCC = 1-2
2. CC/C=C\C/C=C\C/C=C\C/C=C\C/C=C\CCCC(=O)O.NCCCC[C@H](NC(=O)[C@@H](N)CCCCN)C(=O)O.O=C(O)c1cccnc1 = 1 (1 = >95%)
3. CC/C=C\C/C=C\C/C=C\C/C=C\C/C=C\CCCC(=O)O.CC/C=C\C/C=C\C/C=C\C/C=C\C/C=C\CCCC(=O)O.NCCCC[C@H](NC(=O)[C@@H](N)CCCCN)C(=O)O = 1 (1 = >95%)
4. CCC=CCC=CCC=CCC=CCC=CCC=CCCC(=O)O.CCC=CCC=CCC=CCC=CCC=CCC=CCCC(=O)O.N=C(N)NCCCC(N)C(=O)NC(CCCNC(=N)N)C(=O)O = 1 (1 = >95%)
5. CC/C=C\C/C=C\C/C=C\C/C=C\C/C=C\CCCC(=O)O.NCCCC[C@H](NC(=O)[C@@H](N)CCCCN)C(=O)O [Compound 1, (L,L) Lysyl-lysine EPA salt (mono)] = 1 (1 = >95%)

The measurements presented in this section are drawn from patent US9505709B2.
